The following variants are listed with their measured protein stability index values.
B1: RHOBTB1 (parent)
chain: TFGDHHKDRRFAYGRSDVVVLCFS

# Variants of: B1
# Experiment: protein stability index of a GFP-peptide fusion (GPS, HEK-293T) (PSI 1-6); higher = more stable;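 note: lentivirally expressed fusions sorted by FACS into six bins by GFP to DsRed ratio, PSI derived from sequencing read proportions per bin multiplied by bin number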
# Run Parameters: c terminus: a fixed tail appended
Readout Name: protein stability index

{"columns": ["Var", "Quantitative Result"],
 "data": [
  ["H5D", 2.41],
  ["V18S", 1.46],
  ["S24H", 2.98],
  ["S24N", 1.65],
  ["V20P", 2.61],
  ["V19R", 1.89],
  ["R9T", 1.42],
  ["A12G", 1.57],
  ["T1E", 2.06],
  ["F23S", 1.66],
  ["T1V", 3.58],
  ["D17C", 3.12],
  ["F11D", 1.78],
  ["V19M", 2.17],
  ["G14E", 1.99],
  ["A12R", 2.98],
  ["D4L", 3.29],
  ["S16P", 3.17],
  ["V18C", 2.01],
  ["V20D", 2.62],
  ["H6C", 1.2],
  ["K7A", 1.53],
  ["C22N", 2.23],
  ["H5C", 2.27],
  ["H6E", 3],
  ["G3I", 2.42],
  ["G14I", 2.49],
  ["T1P", 2.61],
  ["S16D", 2.52],
  ["F2C", 3.44],
  ["D8F", 1.92],
  ["D17I", 3.11],
  ["L21M", 2.78],
  ["L21T", 2.14],
  ["C22V", 3.33],
  ["R10V", 2.19],
  ["V19H", 2],
  ["D4W", 3.1],
  ["V19Y", 2.45],
  ["Y13C", 2.38],
  ["C22F", 3.21],
  ["F23M", 2.59],
  ["V20Q", 1.7],
  ["V20E", 2.7],
  ["V19W", 1.37],
  ["L21F", 2.07]
]}

Source of measurements: the supplement of paper PMC10567573
